Target: SpCas9 (Streptococcus pyogenes serotype M1, UniProt Q99ZW2)
Sequence (Q99ZW2 whole entry): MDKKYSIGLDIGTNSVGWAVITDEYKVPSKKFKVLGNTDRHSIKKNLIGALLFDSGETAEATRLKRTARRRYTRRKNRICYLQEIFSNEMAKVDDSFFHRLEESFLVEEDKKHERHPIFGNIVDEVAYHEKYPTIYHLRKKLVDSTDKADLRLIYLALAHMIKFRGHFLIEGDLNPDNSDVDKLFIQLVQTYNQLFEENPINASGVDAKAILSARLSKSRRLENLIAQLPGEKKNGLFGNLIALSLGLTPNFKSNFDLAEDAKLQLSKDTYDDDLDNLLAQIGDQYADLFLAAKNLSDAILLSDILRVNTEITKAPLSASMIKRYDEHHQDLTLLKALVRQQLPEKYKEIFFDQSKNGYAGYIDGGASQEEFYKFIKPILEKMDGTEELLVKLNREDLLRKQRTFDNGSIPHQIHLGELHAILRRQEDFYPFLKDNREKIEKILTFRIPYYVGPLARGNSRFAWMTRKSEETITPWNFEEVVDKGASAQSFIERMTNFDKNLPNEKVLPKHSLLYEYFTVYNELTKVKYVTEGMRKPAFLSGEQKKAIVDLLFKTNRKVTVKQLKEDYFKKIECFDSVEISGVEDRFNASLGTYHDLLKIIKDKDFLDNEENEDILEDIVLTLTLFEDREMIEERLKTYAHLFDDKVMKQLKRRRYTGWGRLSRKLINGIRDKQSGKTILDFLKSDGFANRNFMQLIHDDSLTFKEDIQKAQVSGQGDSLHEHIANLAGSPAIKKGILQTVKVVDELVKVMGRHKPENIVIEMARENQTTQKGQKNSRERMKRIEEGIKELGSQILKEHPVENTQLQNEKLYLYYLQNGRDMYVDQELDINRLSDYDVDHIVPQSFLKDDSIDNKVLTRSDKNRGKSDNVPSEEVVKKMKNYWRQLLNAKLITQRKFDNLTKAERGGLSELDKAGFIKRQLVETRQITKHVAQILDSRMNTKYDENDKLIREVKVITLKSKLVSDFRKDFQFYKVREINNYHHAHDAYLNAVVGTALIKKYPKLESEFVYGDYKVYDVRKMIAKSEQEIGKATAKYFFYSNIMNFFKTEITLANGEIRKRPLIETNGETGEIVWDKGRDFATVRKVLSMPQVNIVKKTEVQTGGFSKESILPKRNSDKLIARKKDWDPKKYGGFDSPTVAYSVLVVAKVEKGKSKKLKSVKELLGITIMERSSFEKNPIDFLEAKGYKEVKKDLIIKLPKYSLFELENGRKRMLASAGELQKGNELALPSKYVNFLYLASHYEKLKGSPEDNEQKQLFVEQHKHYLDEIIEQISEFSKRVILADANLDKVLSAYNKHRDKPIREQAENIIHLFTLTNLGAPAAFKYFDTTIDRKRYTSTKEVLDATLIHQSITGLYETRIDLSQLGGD
Assay: Inhibition of SpCas9 nuclease activity in EGFP/iCas9/gRNA-EGFP reporter 293T cells (flow cytometry)
Type: cell-based
Parameters: expressed in transfected cells; host or cells: H2AX-EGFP HEK293T cells, lentiviral transduction, doxycycline-induced
Conditions: titration, Dox 2 μg/mL, 72 h, flow cytometry
metric: pEC50
As a rule, pEC50 stands for the negative log10 of the concentration, concentration in M.

Per the reported SpCas9 (Streptococcus pyogenes serotype M1, UniProt Q99ZW2) data, CC1(C)CC(=NNc2ccc([N+](=O)[O-])cc2[N+](=O)[O-])CC(C)(C)N1C(=O)COCC(=O)N1C(C)(C)CC(=NNc2ccc([N+](=O)[O-])cc2[N+](=O)[O-])CC1(C)C [SP2] has pEC50 of 5.29
